Origin of values: the supplement of paper PMC12406974

System: U2OS BCL2L12-KO
ASSAY_TEXT: maximum observed lethal fraction; higher = more cell death;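 further: FLICK assay: SYTOX Green fluorescence of dead cells tracked over time after drugging in 96-well plates, with total cell counts taken from Triton X-100 lysed wells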
CONDITION_LABEL: 0.1 µM
maximum observed lethal fraction of 0.08 or higher: 1. Under 0.08: 0.

The following compounds have reported results that may help.
| COMPOUND | MEASURED_TARGET | CAT |
| --- | --- | --- |
| Cc1cc(Nc2ccc(NC(=O)c3ccc(Nc4ccnc5ccccc45)cc3)cc2)nc(N)n1 [SGI-1027] | U2OS BCL2L12-KO | 0 |
| COc1cc([C@@H]2c3cc4c(cc3[C@@H](O[C@@H]3O[C@@H]5CO[C@@H](C)O[C@H]5[C@H](O)[C@H]3O)[C@H]3COC(=O)[C@H]23)OCO4)cc(OC)c1O [Etoposide] | U2OS BCL2L12-KO | 0 |
| C/C=C(/C)C(=O)O[C@H]1C(C)=C2[C@H]([C@@H]1OC(=O)CCCCCCC)[C@@](C)(OC(C)=O)C[C@H](OC(=O)CCC)[C@@]1(O)[C@H]2OC(=O)[C@@]1(C)O [Thapsigargin] | U2OS BCL2L12-KO | 1 |
| CC1(C)CCC(CN2CCN(c3ccc(C(=O)NS(=O)(=O)c4ccc(NCC5CCOCC5)c([N+](=O)[O-])c4)c(Oc4cnc5[nH]ccc5c4)c3)CC2)=C(c2ccc(Cl)cc2)C1 [ABT-199] | U2OS BCL2L12-KO | 0 |
| Nc1cc(C(F)(F)F)c(-c2cc(N3CCOCC3)nc(N3CCOCC3)n2)cn1 [Buparlisib] | U2OS BCL2L12-KO | 1 |

Okay, now this compound:
Prompt: Does the compound CC(C)C[C@@H](C=O)NC(=O)[C@H](CC(C)C)NC(=O)[C@H](CC(C)C)NC(=O)OCc1ccccc1 [MG132] have recorded maximum observed lethal fraction that is 0.08 or more?
Completion: 0

====

Tested on: U2OS PTBP1-KO
ASSAY_TEXT: maximum observed lethal fraction; higher = more cell death
CONDITION_LABEL: 0.1 µM
Can you tell me maximum observed lethal fraction for the items I'm about to list?
Give bare numbers.

The examples below pair each entry with its known result.
| COMPOUND | ASSAY_RESULT |
| --- | --- |
| Nc1ccc(-c2ccc3ncc4ccc(=O)n(-c5cccc(C(F)(F)F)c5)c4c3c2)cn1 [Torin2] | 0.107 |
| COc1cc([C@@H]2c3cc4c(cc3[C@@H](O[C@@H]3O[C@@H]5CO[C@@H](c6cccs6)O[C@H]5[C@H](O)[C@H]3O)[C@H]3COC(=O)[C@H]23)OCO4)cc(OC)c1O [Teniposide] | 0.0821 |
| CNCc1ccc(-c2[nH]c3cc(F)cc4c3c2CCNC4=O)cc1 [Rucaparib] | 0.0657 |

# context switch: different compound, same maximum observed lethal fraction
Prompt: Test system U2OS PTBP1-KO; read-out maximum observed lethal fraction; what value for C#C[C@@]1(O)[C@@H](CO)O[C@@H](n2ccc(N)nc2=O)[C@@H]1O [Ethynylcytidine] ?
Completion: 0.0864

====

Test system: U2OS BCL2L12-KO
ASSAY_TEXT: maximum observed lethal fraction; higher = more cell death
CONDITION_LABEL: 0.1 µM
Can you tell me maximum observed lethal fraction for the items I'm about to list?
Answers are plain numbers.

| MOLECULE | MEASURED_TARGET | maximum observed lethal fraction |
| --- | --- | --- |
| CN(C)C/C=C/C(=O)Nc1ccc(C(=O)Nc2cccc(Nc3ncc(Cl)c(-c4c[nH]c5ccccc45)n3)c2)cc1 [THZ1] | U2OS BCL2L12-KO | 0.475 |

Value sought for every listed molecule: maximum observed lethal fraction.
1. CC1(C)CCC(c2ccc(Cl)cc2)=C(CN2CCN(c3ccc(C(=O)NS(=O)(=O)c4ccc(N[C@H](CCN5CCOCC5)CSc5ccccc5)c(S(=O)(=O)C(F)(F)F)c4)cc3)CC2)C1 [ABT-263]
2. Nc1ncnc2c1ncn2[C@@H]1O[C@H](CO)C[C@H]1O [Cordycepin]
3. C[C@H]1CCC/C=C/[C@@H]2C[C@H](O)C[C@H]2[C@H](O)/C=C/C(=O)O1 [Brefeldin A]
4. CO[C@H]1C[C@@H]2CC[C@@H](C)[C@@](O)(O2)C(=O)C(=O)N2CCCC[C@H]2C(=O)O[C@H]([C@H](C)C[C@@H]2CC[C@@H](O)[C@H](OC)C2)CC(=O)[C@H](C)/C=C(\C)[C@@H](O)[C@@H](OC)C(=O)[C@H](C)C[C@H](C)/C=C/C=C/C=C/1C [Rapamycin]
5. Nc1ccc(-c2ccc3ncc4ccc(=O)n(-c5cccc(C(F)(F)F)c5)c4c3c2)cn1 [Torin2]
6. NC1(C(=O)N[C@@H](CCO)c2ccc(Cl)cc2)CCN(c2nc[nH]c3nccc2-3)CC1 [Capivasertib]
7. CC[C@@]1(O)C(=O)OCc2c1cc1n(c2=O)Cc2cc3ccccc3nc2-1 [Camptothecin]

Completion:
0.0718
0.0657
0.387
0.0721
0.181
0.0816
0.0852

Value sought for every listed molecule: maximum observed lethal fraction.
1. COc1cc([C@@H]2c3cc4c(cc3[C@@H](O[C@@H]3O[C@@H]5CO[C@@H](c6cccs6)O[C@H]5[C@H](O)[C@H]3O)[C@H]3COC(=O)[C@H]23)OCO4)cc(OC)c1O [Teniposide]
2. CC(=O)N[C@H]1[C@@H](O[C@@H]2O[C@H](CC(O)[C@H]3O[C@@H](n4ccc(=O)[nH]c4=O)[C@H](O)[C@@H]3O)[C@H](O)[C@H](O)[C@H]2NC(=O)/C=C/CC(C)C)O[C@H](CO)[C@@H](N)[C@@H]1O (stereo partly drawn) [Tunicamycin]
3. CC(=O)[C@]1(O)Cc2c(O)c3c(c(O)c2[C@@H](O[C@H]2C[C@H](N)[C@H](O)[C@H](C)O2)C1)C(=O)c1ccccc1C3=O [Idarubicin]

Completion:
0.0745
0.0857
0.74

Value sought for every listed molecule: maximum observed lethal fraction.
1. O=C(NOC[C@H](O)CO)c1ccc(F)c(F)c1Nc1ccc(I)cc1F [Mirdametinib]
2. COC(=O)C[C@](O)(CCCC(C)(C)O)C(=O)O[C@@H]1C(OC)=C[C@]23CCCN2CCc2cc4c(cc2[C@H]13)OCO4 [Homoharringtonine]

Completion:
1. 0.11
2. 0.0937
